Hey, just so you know, these numbers are from the supplement of paper PMC10567573.

// reported protein stability index for each item listed
B1: PWWP2B (parent)
chain: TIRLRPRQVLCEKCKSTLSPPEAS

Variants of: B1
Assay: protein stability index of a GFP-peptide fusion (GPS, HEK-293T) (PSI 1-6); higher = more stable;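 further: lentivirally expressed fusions sorted by FACS into six bins by GFP to DsRed ratio, PSI derived from sequencing read proportions per bin multiplied by bin number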
Details: c terminus: a fixed tail appended
Property Label: protein stability index

{"columns": ["Mutation Name", "Property Label", "Observed"],
 "data": [
  ["V9N", "protein stability index", 3.58],
  ["Q8G", "protein stability index", 2.96],
  ["T17N", "protein stability index", 2.76],
  ["A23E", "protein stability index", 3.49],
  ["E12M", "protein stability index", 2.26],
  ["C11T", "protein stability index", 3.6],
  ["R7V", "protein stability index", 2.96],
  ["K13A", "protein stability index", 2.72],
  ["R5T", "protein stability index", 3.1],
  ["V9T", "protein stability index", 3.33],
  ["C14H", "protein stability index", 3.52],
  ["S24E", "protein stability index", 3.28],
  ["E12S", "protein stability index", 3.01],
  ["L10M", "protein stability index", 2.83],
  ["A23G", "protein stability index", 2.87],
  ["L18T", "protein stability index", 3.08]
]}
